- system: hROMK (hKir1.1) (Homo sapiens)
- Sequence (P48048 whole entry): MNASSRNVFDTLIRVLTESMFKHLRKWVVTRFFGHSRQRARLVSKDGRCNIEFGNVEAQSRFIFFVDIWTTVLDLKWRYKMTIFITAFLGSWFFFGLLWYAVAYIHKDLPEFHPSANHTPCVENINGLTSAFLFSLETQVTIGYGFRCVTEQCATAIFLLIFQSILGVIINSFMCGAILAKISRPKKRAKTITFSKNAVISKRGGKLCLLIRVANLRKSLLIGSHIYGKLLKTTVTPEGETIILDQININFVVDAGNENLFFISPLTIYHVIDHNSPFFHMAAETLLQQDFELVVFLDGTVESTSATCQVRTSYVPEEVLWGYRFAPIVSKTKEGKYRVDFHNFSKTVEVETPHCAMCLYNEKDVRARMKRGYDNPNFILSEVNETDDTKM
- experimental-protocol: Thallium Flux Assay (ROMK channel functional thallium flux assay)
- measurement-conditions: HEK293 cells stably expressing hROMK (hKir1.1); FluxOR thallium flux, FLIPR-Tetra, 30 min compound incubation; read-out: ROMK TI IC50
Mark each entry condition met if its IC50 sits below 400 nM, and condition not met for all others.

Dear reviewer, please state whether CCc1nccc(N2CCC3(CCN(C[C@H](O)c4ccc5c(c4C)COC5=O)CC3)C2=O)n1 has IC50 strictly beneath 400 nM.
condition met

Hi there! Is IC50 for Cc1nsc(N2CCC3(CCN(C[C@H](O)c4ccc5c(c4C)COC5=O)CC3)C2=O)n1 below 400 nM, do you know?
condition met

Please check: IC50 for [2H]C([2H])(N1CCC2(CCN(c3ccc(=O)n(C)n3)C2=O)CC1)[C@@]([2H])(O)c1ccc2c(c1C)COC2=O (single isomer, unassigned) , strictly under 400 nM or not?
condition not met

Report whether reported IC50 is lower than 400 nM (strictly) for Cc1c([C@@H](O)CN2CCC3(CC2)CCN(c2nc(CO)ns2)C3=O)ccc2c1COC2=O
condition not met

Item Cc1c([C@@H](O)CN2CCC3(CCCN(c4ccncc4)C3=O)CC2)ccc2c1COC2=O : IC50 beneath 400 nM, strictly?
condition not met

Is 400 nM strictly greater than the compound's reported IC50? compound: COc1ccnc(N2CCC3(CCN(C[C@H](O)c4ccc5c(c4C)COC5=O)CC3)CC2)n1
condition met

Identify whether the compound Cc1c([C@@H](O)CN2CCC3(CC2)CCN(c2ccc(=O)n(C)n2)C3)ccc2c1COC2=O records IC50 below 400 nM.
condition met

Does this compound meet the criterion IC50 < 400 nM? COc1cc([C@@H](O)CN2CCC3(CC2)CCN(c2ccns2)C3=O)ncc1C#N
condition not met

In the record for Cc1c([C@@H](O)CN2CCC3(CC2)CCN(c2cc(-c4ccccc4)no2)C3=O)ccc2c1COC2=O , is IC50 less than 400 nM?
condition not met

I'd appreciate it if you could check whether CCn1nc(N2CCC3(CCN(C[C@H](O)c4ccc5c(c4C)COC5=O)CC3)C2=O)ccc1=O has IC50 smaller than 400 nM.
condition met

Say whether its IC50 is strictly beneath 400 nM. Entry: Cc1c([C@@H](O)CN2CCC3(CC2)CCN(c2ccnnc2)C3=O)ccc2c1COC2=O
condition met

Determine if COc1nccc(N2CCOC3(CCN(C[C@H](O)c4ccc5c(c4C)COC5=O)CC3)C2=O)n1 shows IC50 strictly lower than 400 nM.
condition met

Lab note: IC50 threshold 400 nM. Does this compound come in strictly under it? Cc1c([C@@H](O)CN2CCC3(CC2)NCCN(c2ccc(=O)n(C)n2)C3=O)ccc2c1COC2=O
condition met

Decide: IC50 of CCOC(=O)c1cc(N2CCC3(CCN(C[C@H](O)c4ccc5c(c4C)COC5=O)CC3)C2=O)on1 strictly below 400 nM?
condition met

Take the compound Cc1c([C@@H](O)CN2CCC3(CC2)CCN(c2cnccn2)CC3)ccc2c1COC2=O and say whether its IC50 is less than 400 nM.
condition met

In plain terms, does Cc1nccc(N2CCC3(CCN(C[C@H](O)c4ccc5c(c4C)COC5=O)CC3)C2=O)n1 come in under 400 nM for IC50?
condition met

Please indicate whether the reported IC50 of O=C1N(c2ccns2)CCC12CCN(C[C@H](O)c1ccc(-n3cnnn3)nc1)CC2 is strictly below 400 nM.
condition not met

API: query returns whether the compound falls strictly under 400 nM in IC50. Query: Cc1c([C@@H](O)CN2CCC3(CC2)CCN(c2ncns2)C3)ccc2c1COC2=O
condition not met

Consider the compound COc1cc(N2CCC3(CCN(C[C@H](O)c4ccc5c(c4C)COC5=O)CC3)C2=O)cnn1 . Is its IC50 strictly less than 400 nM?
condition not met

Take the compound Cc1c([C@@H](O)CN2CCC3(CC2)CC(=O)N(c2ccns2)C3)ccc2c1COC2=O and say whether its IC50 is less than 400 nM.
condition not met

Would you kindly verify if IC50 of Cc1c([C@@H](O)CN2CCC3(CC2)CN(c2ccncc2)C(=O)O3)ccc2c1COC2=O is strictly less than 400 nM?
condition not met

# check: IC50 < 400 nM for Cc1c([C@H](O)CN2CCC3(CC2)CCN(c2ccc(=O)n(C)n2)C3=O)ccc2c1COC2=O (single isomer, unassigned)
condition met

Given the entry Cc1c([C@@H](O)CN2CCC3(CC2)CCN(c2cc(C(F)(F)F)ncn2)C3=O)ccc2c1COC2=O , would its reported IC50 be below 400 nM?
condition not met

Is the reported IC50 for Cc1c([C@@H](O)CN2CCC3(CC2)CCN(c2ccc(=O)n(C(F)F)n2)C3=O)ccc2c1COC2=O strictly below 400 nM?
condition met

Below 400 nM on IC50? Entry Cc1c([C@@H](O)CN2CCC3(CC2)CCN(c2cc(C(F)(F)F)ncn2)C3)ccc2c1COC2=O
condition met

hey, is IC50 for Cc1cc2c(cc1[C@H](O)CN1CCC3(CC1)CCN(c1ccns1)C3=O)COC2=O lower than 400 nM or not?
condition not met

Regarding Cc1nccnc1N1CCC2(CCN(C[C@H](O)c3ccc4c(c3C)COC4=O)CC2)CC1 , kindly confirm whether its IC50 is beneath 400 nM.
condition not met

I'd appreciate it if you could check whether COc1nccc(N2CCC3(CCN(C[C@H](O)c4ccc5c(c4C)COC5=O)CC3)C2)n1 has IC50 smaller than 400 nM.
condition not met

Dear reviewer, please state whether COc1nccc(N2CCC3(CCN(C[C@H](O)c4ccc5c(c4C)COC5=O)CC3)C2=O)n1 has IC50 strictly beneath 400 nM.
condition met

Determine if COc1nccc(N2CCC3(CCN(C[C@H](O)c4ccc(-n5cnnn5)nc4C)CC3)C2=O)n1 shows IC50 strictly lower than 400 nM.
condition not met

Given Cc1c([C@@H](O)CN2CCC3(CC2)CCN(c2ccncn2)C3=O)ccc2c1COC2=O , is recorded IC50 strictly lower than 400 nM?
condition not met
